- Test system: U373MG
- Run description: Anti-proliferative MTT assay, U373MG
- Format: cell-based
- Condition notes: Homo sapiens, U373 MG, 96 h, Brain, 4 days
Measure: IC50 (nM)
Express it in nM; write the number only.

## Input // query IC50 value for entry `CCOC(=O)Cn1c(C)c(/C=N/NC(=O)c2cc3c(ccc4ccccc43)o2)c2ccccc21`
## Output 517

* * *

- Tested on: HCT116
- Run description: Anti-proliferative MTT assay, HCT116
- Format: cell-based
- Condition notes: Homo sapiens, HCT-116, 96 h, HCT116, Large intestine, 4 days
Measure: pIC50
Formally, pIC50 is defined as -log10 of the concentration c, with c in mol/L.

## Input Query (compound): `CCOC(=O)Cn1c(C)c(/C=N/NC(=O)c2cc3c(ccc4ccccc43)o2)c2ccccc21` ; field requested: pIC50
## Output 6.14

* * *

- Test system: HepG2
- Run description: Anti-proliferative MTT assay, HepG2
- Assay type: cell-based
- Condition notes: Homo sapiens, 96 h, HepG2, Liver, 4 days
Measure: IC50
Include the unit after the number when you answer.

## Input I'd like to know its IC50. The compound in question is CCOC(=O)Cn1c(C)c(/C=N/NC(=O)c2cc3c(ccc4ccccc43)o2)c2ccccc21 [STK899704]
## Output 820 nM

* * *

- Test system: SNU-601
- Run description: Anti-proliferative MTT assay, SNU-601
- Format: cell-based
- Condition notes: 96 h, SNU-601, Stomach, 4 days
Measure: pIC50
pIC50 is defined as minus the log10 of a concentration measured in mol/L.

## Input Name the reported pIC50 value associated with the molecule `CCOC(=O)Cn1c(C)c(/C=N/NC(=O)c2cc3c(ccc4ccccc43)o2)c2ccccc21`
## Output 6.11

* * *

Please go through the items and note down their pIC50.
- Tested on: MCF7/ADR
- Run description: Cytotoxicity MTT assay, multi-drug resistant MCF7/ADR
- Assay type: cell-based
- Condition notes: Homo sapiens, NCI/ADR-RES, 96 h; MCF7/ADR; MTT, 4 days
// field semantics: pIC50 = negative decimal log of concentration (mol/L)

## Input What does the record list as pIC50 for `CCOC(=O)Cn1c(C)c(/C=N/NC(=O)c2cc3c(ccc4ccccc43)o2)c2ccccc21` ?
## Output 3.65

## Input Find the recorded pIC50 belonging to `COc1cccc2c1C(=O)c1c(O)c3c(c(O)c1C2=O)C[C@@](O)(C(=O)CO)C[C@@H]3O[C@H]1C[C@H](N)[C@H](O)[C@H](C)O1` and report it.
## Output 2.28

## Input # get_value(readout='pIC50', item= `CC(=O)O[C@H]1C(=O)[C@@]2(C)[C@H]([C@H](OC(=O)c3ccccc3)[C@]3(O)C[C@H](OC(=O)[C@H](O)[C@@H](NC(=O)c4ccccc4)c4ccccc4)C(C)=C1C3(C)C)[C@]1(OC(C)=O)CO[C@@H]1C[C@@H]2O` )
## Output 2.79

* * *

- Tested on: A-172
- Run description: Anti-proliferative MTT assay, A-172
- Format: cell-based
- Condition notes: Homo sapiens, 96 h, A-172, Brain, 4 days
Measure: IC50 (nM)
# unit: nM | format: bare number

## Input Which IC50 reading was recorded for the compound CCOC(=O)Cn1c(C)c(/C=N/NC(=O)c2cc3c(ccc4ccccc43)o2)c2ccccc21 [STK899704] ?
## Output 603
